Listed here are compounds together with their documented GI50.
System: HOP-62 NSCLC
test_method_notes: NCI tumour cell line growth inhibition, 48 h

{"columns": ["compound", "GI50"],
 "data": [
  ["CC[C@]1(O)C[C@H]2CN(CCc3c([nH]c4ccccc34)C(C(=O)OC)(c3cc4c(cc3OC)N(C)[C@H]3[C@@](O)(C(=O)OC)[C@H](OC(C)=O)[C@]5(CC)[C@@H]6C[C@@H]6CN6CC[C@]43[C@@H]65)C2)C1 (some centres not stated)", "3.65 nM"],
  ["COc1cc2c(cc1OCCCCCN1CCN(c3ncnc4ccccc34)CC1)N=CC1CCCN1C2=O (configuration not stated)", "25.7 nM"],
  ["O=c1cccc(C#CC#C[C@@H]2O[C@H]2CO)o1", "1550 nM"],
  ["Cc1nc2sccn2c1-c1nc2sccn2c1/C=C1/C(=O)Nc2ccccc21", "3610 nM"],
  ["Cc1nc2c(Br)cc(Br)cc2c(=O)n1-c1nnc(-c2cccc(Cl)c2Cl)c(N)n1", "7080 nM"],
  ["NNc1ncnc2nc[nH]c12", "2250 nM"],
  ["NCCCn1c2c(c3ccc([N+](=O)[O-])cc3c1=O)C(=O)c1cc(I)ccc1-2", "21.1 nM"]
]}
